# experimental conditions: in isopropanol, 303.15 K
endpoint: solubility (mole fraction)
I'd appreciate a reply containing only the number, no unit.

So, NC(=O)C[C@H](N)C(=O)O.O ? Its solubility (mole fraction) was 3.81e-05

* * *

# experimental conditions: in acetonitrile, 288.15 K
endpoint: solubility (mole fraction)
Keep the answer to the number alone.

Entry under test: NC(=O)C[C@H](N)C(=O)O.O . Its solubility (mole fraction) was 1.09e-05

* * *

# experimental conditions: in n-butanol, 278.15 K
endpoint: solubility (mole fraction)
Write the value as a bare number.

In plain terms, NC(=O)C[C@H](N)C(=O)O.O has a documented solubility (mole fraction) of 1.07e-05

* * *

# experimental conditions: in n-butyl acetate, 303.15 K
endpoint: solubility (mole fraction)
// return a plain number; no unit text

Documented solubility (mole fraction) of NC(=O)C[C@H](N)C(=O)O.O : 5.76e-05

* * *

# experimental conditions: in n-propyl acetate, 318.15 K
endpoint: solubility (mole fraction)

Documented solubility (mole fraction) of NC(=O)C[C@H](N)C(=O)O.O : 0.000121

* * *

# experimental conditions: in methyl acetate, 318.15 K
endpoint: solubility (mole fraction)
Answer with the value's number alone.

Form: molecule = NC(=O)C[C@H](N)C(=O)O.O ; solubility (mole fraction) = 0.000127

* * *

# experimental conditions: in acetonitrile, 303.15 K
endpoint: solubility (mole fraction)
Quick one: just the number, no unit, thanks!

Kindly note the recorded solubility (mole fraction) for NC(=O)C[C@H](N)C(=O)O.O , which is 2.49e-05

* * *

# experimental conditions: in methyl acetate, 298.15 K
endpoint: solubility (mole fraction)
Just the number.

Entry NC(=O)C[C@H](N)C(=O)O.O — recorded solubility (mole fraction) = 4.89e-05

* * *

# experimental conditions: in ethanol, 313.15 K
endpoint: solubility (mole fraction)
Field format: numeric only.

Record NC(=O)C[C@H](N)C(=O)O.O . Reported solubility (mole fraction): 8.57e-05

* * *

# experimental conditions: in methanol, 278.15 K
endpoint: solubility (mole fraction)

Kindly note the recorded solubility (mole fraction) for NC(=O)C[C@H](N)C(=O)O.O , which is 1.54e-05

* * *

# experimental conditions: in ethyl acetate, 293.15 K
endpoint: solubility (mole fraction)
Write the value as a bare number.

Item: NC(=O)C[C@H](N)C(=O)O.O | solubility (mole fraction): 2.99e-05

* * *

# experimental conditions: in acetonitrile, 283.15 K
endpoint: solubility (mole fraction)

Reported solubility (mole fraction) ( NC(=O)C[C@H](N)C(=O)O.O ) = 8.11e-06

* * *

# experimental conditions: in n-propanol, 323.15 K
endpoint: solubility (mole fraction)
Give the figure only, with no unit attached.

For reference, reported solubility (mole fraction) for NC(=O)C[C@H](N)C(=O)O.O stands at 0.000117

* * *

# experimental conditions: in water, 293.15 K
endpoint: solubility (mole fraction)

What the record says about NC(=O)C[C@H](N)C(=O)O.O : solubility (mole fraction) is 0.0028

* * *

# experimental conditions: in ethyl acetate, 308.15 K
endpoint: solubility (mole fraction)

Sure, the documented solubility (mole fraction) for NC(=O)C[C@H](N)C(=O)O.O is 6.39e-05

* * *

# experimental conditions: in isobutanol, 293.15 K
endpoint: solubility (mole fraction)
# print the numeric value only

solubility (mole fraction) reported for this molecule NC(=O)C[C@H](N)C(=O)O.O : 2.59e-05

* * *

# experimental conditions: in methyl acetate, 283.15 K
endpoint: solubility (mole fraction)
Note: the reply should be a number with no unit written.

Item: NC(=O)C[C@H](N)C(=O)O.O | solubility (mole fraction): 2.23e-05

* * *

# experimental conditions: in methanol, 288.15 K
endpoint: solubility (mole fraction)
Field format: numeric only.

The recorded solubility (mole fraction) for entry NC(=O)C[C@H](N)C(=O)O.O equals 2.7e-05

* * *

# experimental conditions: in n-propanol, 288.15 K
endpoint: solubility (mole fraction)
Write no unit; give the number alone.

Notebook: NC(=O)C[C@H](N)C(=O)O.O , solubility (mole fraction) read as 1.94e-05

* * *

# experimental conditions: in water, 283.15 K
endpoint: solubility (mole fraction)

Record summary for NC(=O)C[C@H](N)C(=O)O.O : reported solubility (mole fraction) = 0.00178

* * *

# experimental conditions: in n-propanol, 293.15 K
endpoint: solubility (mole fraction)
Just the number.

Form: compound = NC(=O)C[C@H](N)C(=O)O.O ; solubility (mole fraction) = 2.57e-05

* * *

# experimental conditions: in water, 318.15 K
endpoint: solubility (mole fraction)
Simply state the number, no unit and no words.

// recorded solubility (mole fraction) for NC(=O)C[C@H](N)C(=O)O.O : 0.0076

* * *

# experimental conditions: in n-butanol, 298.15 K
endpoint: solubility (mole fraction)
Just the number.

The measured solubility (mole fraction) associated with NC(=O)C[C@H](N)C(=O)O.O reads 3.26e-05

* * *

# experimental conditions: in acetonitrile, 278.15 K
endpoint: solubility (mole fraction)

Lab note: NC(=O)C[C@H](N)C(=O)O.O gave solubility (mole fraction) of 5.98e-06

* * *

# experimental conditions: in n-butanol, 293.15 K
endpoint: solubility (mole fraction)
# print the numeric value only

# solubility (mole fraction) of NC(=O)C[C@H](N)C(=O)O.O = 2.5e-05

* * *

# experimental conditions: in n-butanol, 318.15 K
endpoint: solubility (mole fraction)
The answer should be written as a number, with no unit following it.

The compound identified as NC(=O)C[C@H](N)C(=O)O.O registered its solubility (mole fraction) at 8.62e-05

* * *

# experimental conditions: in isopropanol, 308.15 K
endpoint: solubility (mole fraction)
Output: the number by itself.

response.value for NC(=O)C[C@H](N)C(=O)O.O (field: solubility (mole fraction)) = 4.96e-05

* * *

# experimental conditions: in n-butyl acetate, 323.15 K
endpoint: solubility (mole fraction)
Hey, just send me the number, nothing else.

For record NC(=O)C[C@H](N)C(=O)O.O the listed solubility (mole fraction) is 0.000142

* * *

# experimental conditions: in n-butyl acetate, 293.15 K
endpoint: solubility (mole fraction)
# answer = number (no unit)

The reported solubility (mole fraction) of the compound NC(=O)C[C@H](N)C(=O)O.O was 3.49e-05

* * *

# experimental conditions: in methanol, 283.15 K
endpoint: solubility (mole fraction)
The reply should be a number, written without any unit.

Entry under test: NC(=O)C[C@H](N)C(=O)O.O . Its solubility (mole fraction) was 2.04e-05

* * *

# experimental conditions: in n-butanol, 288.15 K
endpoint: solubility (mole fraction)

Reported solubility (mole fraction) for NC(=O)C[C@H](N)C(=O)O.O was 1.9e-05

Where do these numbers come from? They come from BigSolDB 2.1.
